Would you mind telling me the reported cytotoxicity at 10 µM of each entry?
assay: Toxicity liver stage against HepG2, at 10uM; format: cell-based; set-up: test concentration 10 uM, cell line HepG2-A16-CD81EGFP; conditions: human, HepG2-A16-CD81EGFP cells; read-out: INHIBITION
I'd appreciate it if you included the unit after the number.

Any idea what cytotoxicity at 10 µM was measured for COc1ccnc(N2CCCN(c3nc(C4CC4)ns3)CC2)n1 ?
0.142%

Now this one: CN(C)S(=O)(=O)N1C[C@H]2CC[C@@H](C1)N(Cc1ccc3[nH]ccc3c1)C2
3.07%

Now this one: O=S1(=O)NC2(CCCN(Cc3ccc(Cl)cc3)C2)COc2ccccc21 (configuration not stated)
15.2%

Now this one: CCC(CN1CCCC1)NC(=O)C1(c2ccc(F)cc2)CC1 (configuration not stated)
-1.76%

Now this one: COCc1cccc(S(=O)(=O)NCc2cnn(C)c2C)c1
-4.02%

Now this one: CNC(=O)C1(CCCc2ccncc2)CCN1 (configuration not stated)
-9.08%

Now this one: CCOC(=O)CNC(=O)NCc1cc(C)n(-c2ccccc2OC)c1C
13.3%

Now this one: Cc1ncc2c(n1)CN(CCCOc1ccc(C#N)cc1)CC2
-3.9%

Now this one: CCCS(=O)(=O)N1CCC2(CCCN(c3ncc(F)cn3)C2)C1 (configuration not stated)
13.4%

Now this one: Cc1cccc(CN2CCc3nnc(Cn4cccc4)n3CC2)n1
1.7%

Now this one: Cc1ncc(-c2ccncc2)c(C2CCN(C(=O)c3ccno3)CC2)n1
2.08%

Now this one: CCC(=O)Nc1cccc(OCC(=O)N(C)Cc2nccn2CC)c1
3.96%

Now this one: COCCOc1ccc(NC(=O)N(CCCO)CC(C)(C)C)cn1
-7.85%

Now this one: CN1CCC2(CC1)CN(C(=O)c1onc3ccccc13)CCCN2C
8.31%

Now this one: CCCc1cc(C(=O)N2C[C@H](O)[C@@H](N3CCCC3)C2)ccn1
5.92%

Now this one: CC(=O)c1cc(CC(=O)NCc2cccc(F)c2F)cs1
2.95%

Now this one: COC(=O)C(O)C1CCN(Cc2cccc(-n3cccn3)c2)CC1 (configuration not stated)
-16.5%

Now this one: O=C(Cn1cc(-c2ccccc2)ncc1=O)Nc1nccs1
-4.83%

Now this one: O=C1CCCN1CCCNCc1cc(O)c2cccc(F)c2n1
-1.16%

Now this one: N#Cc1cccc(CN2CC[C@@H]3[C@@H]2CC(=O)N3CCN2CCCC2)c1
-84.4%

Now this one: O=C1NC2(Cc3ccccc31)CN(CC1CCNC1)C2 (configuration not stated)
9.76%

Now this one: CC(=O)N1[C@H](CN(C)C)C[C@@H]2CN(C(=O)c3occc3C)CC[C@@H]21
0.847%

Now this one: Cc1[nH]c2ccccc2c1CCNc1ncnc2c1CCNCC2
-37.5%

Now this one: COc1ccc(Br)cc1CC(=O)N1CCCC1
-2.69%

Now this one: CCC1(CO)CCCN(C(=O)c2ccc(N3CCN(C)CC3)cc2)C1 (configuration not stated)
-4.71%

Now this one: NC(=O)C1CCCN(c2ccc(CNC(=O)c3cnsn3)cc2)C1 (configuration not stated)
2.25%

Now this one: O=C(c1cc[nH]n1)N1CCc2c(nc(N3CCCCC3)[nH]c2=O)C1
15.5%

Now this one: CCOC(C)c1nccn1CC(=O)Nc1cc(C)on1 (configuration not stated)
-5.58%

Now this one: Cc1cccc(-c2nnc(C(C)NCCn3cc(C)cn3)o2)c1 (configuration not stated)
-8.32%

Now this one: Cc1[nH]c2ccc(CNC3CCN(Cc4ccccn4)CC3)cc2c1C
3.97%

Now this one: CC1c2ncc(COc3cccnc3)n2CCN1C(=O)C1=CCCCC1 (configuration not stated)
3.39%

Now this one: Cc1nc(CC(=O)N2CCc3nc(-c4cnccn4)nc(O)c3C2)cs1
16.2%

Now this one: COc1ccc2nc(C3CC3)cc(C(=O)NCc3ncnn3C)c2c1
-8.06%

Now this one: CC(C)(O)C1CCN(C(=O)Nc2nc(-c3ccccc3)ns2)CC1
5.68%

Now this one: CN1CCCN(C(=O)c2csc3nc(-c4ccc(Cl)cc4)cn23)CC1
2.14%

Now this one: CC(C)(C)n1cc(C(=O)N2CCN(Cc3cccnc3)CC2)cn1
-7.51%

Now this one: Cc1ccc(C(=O)N2CCC3(CCN(C(=O)c4cccnc4)C3)CC2)o1
0.101%

Now this one: CC(=O)N1CCCC1c1nnc2n1CCCCC2 (configuration not stated)
4.31%

Now this one: Cc1nc2c(c(C)c1CC(=O)Nc1ccnn1C(C)C)c(=O)[nH]n2C
13%

Now this one: Cn1cc(-c2csc(N3CCN(c4nccs4)CC3)n2)cn1
6.23%

Now this one: CCc1nc(NS(=O)(=O)c2cccc(F)c2C)no1
5.18%

Now this one: Cc1nonc1C1CCCN1C(=O)c1cc2n(n1)CCCNC2 (configuration not stated)
-7.73%

Now this one: CC(C)N1CCC(C(=O)N2CCCN(c3ccccc3)CC2)CC1
7.4%

Now this one: CN(C)C(=O)C1CN(Cc2nccs2)CCN(S(C)(=O)=O)C1 (configuration not stated)
0.325%

Now this one: CCc1nc(CN2CCCC(N(C)Cc3cnn(C)c3)C2)no1 (configuration not stated)
-14.5%

Now this one: COc1c(Cl)cccc1NCc1csc(C)n1
-10.1%

Now this one: Cc1cc(-c2cnc(C3CC3)nc2CN(C)C(=O)c2ccccn2)on1
-45%

Attribution: ChEMBL document CHEMBL4513216
